Just for reference, patent US20260242478A1 is where these values come from.

The entries below are paired with their reported Anti-CD28 Fab signal in the presence of CD28.
Tested System: T1, Anti-CD28 Fab (SEQ ID NOs: 696, 697)
T1 construct: Biotinylated and captured on neutravidin coated plates in the phage ELISA
T1 sequence (VH, as listed by the source, chain 1 of 2): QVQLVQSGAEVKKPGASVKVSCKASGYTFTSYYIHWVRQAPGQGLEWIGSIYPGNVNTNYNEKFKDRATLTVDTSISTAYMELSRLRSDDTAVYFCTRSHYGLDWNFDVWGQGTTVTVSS
T1 sequence (VL, as listed by the source, chain 2 of 2): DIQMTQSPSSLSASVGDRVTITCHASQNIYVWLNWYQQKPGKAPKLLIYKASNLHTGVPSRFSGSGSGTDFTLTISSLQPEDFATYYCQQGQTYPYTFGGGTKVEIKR
Assay Text: phage binding ELISA, Fab on plate pre-incubated with CD28 antigen as competitor
Reported Metric: Anti-CD28 Fab signal in the presence of CD28

Binder: YCSGHLPQYMQKCL (Clonal phage of the Peptide-87 library, tested as crude supernatant; not shown: pIII of the bacteriophage to which the peptide is fused) [Phage-564]
Number: 0.08
--
Binder: YCDGHSSEYMAKCL (Clonal phage of the Peptide-87 library, tested as crude supernatant; not shown: pIII of the bacteriophage to which the peptide is fused) [Phage-565]
Number: 0.09
--
Binder: YCQGHAPEYMAKCL (Clonal phage of the Peptide-87 library, tested as crude supernatant; not shown: pIII of the bacteriophage to which the peptide is fused) [Phage-562]
Number: 0.1
--
Binder: YCDGHAPQYMRKCL (Clonal phage of the Peptide-87 library, tested as crude supernatant; not shown: pIII of the bacteriophage to which the peptide is fused) [Phage-553]
Number: 0.07
--
Binder: YCEGHSSEYMLKCL (Clonal phage of the Peptide-87 library, tested as crude supernatant; not shown: pIII of the bacteriophage to which the peptide is fused) [Phage-555]
Number: 0.07
--
Binder: YCDGHSQEYMMKCL (Clonal phage of the Peptide-87 library, tested as crude supernatant; not shown: pIII of the bacteriophage to which the peptide is fused) [Phage-563]
Number: 0.06
--
Binder: YCEGHAAEYMEKCL (Clonal phage of the Peptide-87 library, tested as crude supernatant; not shown: pIII of the bacteriophage to which the peptide is fused) [Phage-556]
Number: 0.11
--
Binder: YCDGHVPEYMAKCL (Clonal phage of the Peptide-87 library, tested as crude supernatant; not shown: pIII of the bacteriophage to which the peptide is fused) [Phage-560]
Number: 0.07
--
Binder: YCEGHSAQYMSKCL (Clonal phage of the Peptide-87 library, tested as crude supernatant; not shown: pIII of the bacteriophage to which the peptide is fused) [Phage-557]
Number: 0.07
